Target protein (sequence): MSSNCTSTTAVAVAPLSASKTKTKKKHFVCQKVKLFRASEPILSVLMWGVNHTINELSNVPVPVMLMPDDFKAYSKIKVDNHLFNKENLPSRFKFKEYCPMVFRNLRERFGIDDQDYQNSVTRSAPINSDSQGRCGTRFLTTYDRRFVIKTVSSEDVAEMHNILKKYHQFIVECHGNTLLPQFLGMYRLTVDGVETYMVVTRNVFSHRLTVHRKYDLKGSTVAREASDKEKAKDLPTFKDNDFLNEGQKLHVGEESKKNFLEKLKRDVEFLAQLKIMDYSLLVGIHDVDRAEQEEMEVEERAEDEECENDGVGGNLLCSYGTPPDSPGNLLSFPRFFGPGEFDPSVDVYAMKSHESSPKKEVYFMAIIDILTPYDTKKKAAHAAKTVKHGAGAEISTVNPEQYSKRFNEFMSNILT
pIC50: −log10 of the molar value.
pIC50 for assorted compounds
Value Kind: pIC50

O=C(Nc1cncc(Nc2ccc(-c3ccc(N4CCCC4=O)cc3)cn2)c1)c1nn[nH]n1    7.00 to 8.00
O=C1CCCN1c1ccc(-c2ccc(Nc3cnc4c(c3)N3C(=O)CC[C@@H]3CO4)nc2)cc1    7.00 to 8.00
Cc1nc(Nc2cnc3c(c2)N2C(=O)C4(CC4)C[C@H]2CO3)ncc1-c1ccc(N2CCCC2=O)cc1    8.00 to 9.00
O=C(Nc1cncc(Nc2ccc(-c3ccc(N4CCCC4=O)cc3)cn2)c1)C1CC1c1ccccc1 (centres unmarked)    7.00 to 8.00
CC(C)(N)c1cc(Nc2cnc3c(c2)N2C(=O)CC[C@H]2CO3)ncc1-c1ccc(N2CCCC2=O)cc1F    7.00 to 8.00
CC(C)c1nc(Nc2cnc3c(c2)N2C(=O)C4(CC4)C[C@H]2CO3)ncc1-c1ccc(N2CCCC2=O)cc1    8.00 to 9.00
CN(C)C(=O)c1ccc(-c2ccc(Nc3cncc(N4CCN(Cc5ccc(NC(=O)CN)cc5)C4=O)c3)nc2)cc1    < 6.00
CN(C)C(=O)c1ccc(-c2ccc(Nc3cncc(NC(=O)c4cccc(NC(=O)CCOCCOCCN)c4)c3)nc2)cc1    7.00 to 8.00
CN(C)C(=O)c1ccc(-c2ccc(Nc3cncc(N4CCN(Cc5ccc(NC(=O)CCc6cccc(N)c6)cc5)C4=O)c3)nc2)cc1    7.00 to 8.00
CN(C)C/C=C/C(=O)NCC(=O)Nc1cccc(CN2CCN(c3cncc(Nc4ccc(-c5ccc(C(=O)N(C)C)cc5)cn4)c3)C2=O)c1    7.00 to 8.00
O=C1CCCN1c1ccc(-c2cnc(Nc3cnc4c(c3)N3C(=O)C5(CC5)C[C@H]3CO4)nc2)cc1    8.00 to 9.00
CN(C)C(=O)c1ccc(-c2ccc(Nc3cnc4c(c3)OCCO4)nc2)cc1    7.00 to 8.00
Cc1cc(Nc2cnc3c(c2)N2C(=O)C4(CC4)C[C@H]2CO3)ncc1-c1ccc(N2CCCC2=O)cc1    7.00 to 8.00
CN(C)C/C=C/C(=O)Nc1cccc(CCC(=O)Nc2cncc(Nc3ccc(-c4ccc(N5CCCC5=O)cc4)cn3)c2)c1    7.00 to 8.00

====

- Target Under Test: PIP4K2A (Homo sapiens, UniProt P48426)
- Assay Method Text: ADP-glo kinase assay PIP4K 2A (Table 3)
- Format: biochemical
- Parameters: made in house; host or cells: E. coli
- Experimental Parameters: compounds listed under IC50 bins
- Sequence (P48426 whole entry, species assumed): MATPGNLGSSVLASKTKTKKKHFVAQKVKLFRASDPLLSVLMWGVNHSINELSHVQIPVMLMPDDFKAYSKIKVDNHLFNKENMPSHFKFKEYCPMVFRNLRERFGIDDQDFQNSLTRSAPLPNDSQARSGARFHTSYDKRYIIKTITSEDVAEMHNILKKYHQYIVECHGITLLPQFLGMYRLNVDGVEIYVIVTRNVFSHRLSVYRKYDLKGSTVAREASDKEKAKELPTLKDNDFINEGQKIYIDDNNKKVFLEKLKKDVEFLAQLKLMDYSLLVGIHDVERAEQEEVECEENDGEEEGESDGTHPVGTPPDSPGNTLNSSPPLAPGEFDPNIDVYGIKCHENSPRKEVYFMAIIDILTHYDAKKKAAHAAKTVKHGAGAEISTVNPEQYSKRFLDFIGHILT
pIC50: −log10 of the molar value.
Value Kind: pIC50

CN(C)C(=O)c1ccc(-c2ccc(Nc3cncc(NC(=O)Cc4ccccc4)c3)nc2)cc1    6.00 to 7.00
O=C1CCCN1c1ccc(-c2ccc(Nc3cnc4c(c3)OCCO4)nc2)cc1    6.00 to 7.00
CN(C)C/C=C/C(=O)NCC(=O)Nc1ccc(CN2CCN(c3cncc(Nc4ccc(-c5ccc(C(=O)N(C)C)cc5)cn4)c3)C2=O)cc1    < 6.00
CNC(=O)Nc1cncc(Nc2ccc(-c3ccc(C(=O)N(C)C)cc3)cn2)c1    7.00 to 8.00
O=C1CCCN1c1ccc(-c2ccc(Nc3cnc4c(c3)N3C(=O)CC[C@H]3CO4)nc2)cc1    8.00 to 9.00
Cc1cc(N2CCCC2=O)ccc1-c1ccc(Nc2cnc3c(c2)N2C(=O)C4(CC4)C[C@H]2CO3)nc1    7.00 to 8.00
COCCC(=O)N1CCN(c2cncc(Nc3ccc(-c4ccc(N5CCCC5=O)cc4)cn3)c2)CC1    6.00 to 7.00

====

pIC50 for assorted molecules
- Target Under Test: PIP4K2A (Homo sapiens)
- Assay Method Text: Kinase Assay PIP4K2 A (Table 2)
- Format: biochemical
- Set-up: 4 nM PIP4K2A (full length protein, SignalChem); purchased SignalChem
- Experimental Parameters: compounds listed under IC50 bins
- Sequence (P48426 whole entry): as the sequence (P48426 whole entry, species assumed) above
pIC50: −log10 of the molar value.
Value Kind: pIC50

CN(C)C(=O)c1cc(F)c(-c2ccc(Nc3cncc(N4CCCC4=O)c3)nc2)cc1F [Example 14]    6.00 to 7.00
CN(C)C(=O)c1ccc(-c2ccc(Nc3ccc(CCN4CCOCC4)nc3)nc2)cc1 [Example 51]    < 6.00
CN(C)C(=O)c1ccc(-c2ccc(Nc3cncc(NC(=O)CCc4cccc(NC(=O)CCCCCN)c4)c3)nc2)cc1 [Example 111]    8.00 to 9.00

====

- Target Under Test: PIP4K2A (Homo sapiens)
- Assay Method Text: Kinase Assay PIP4K2 A (Table 2)
- Type: biochemical
- Design: 4 nM PIP4K2A (full length protein, SignalChem); purchased SignalChem
- Experimental Parameters: compounds listed under IC50 bins
pIC50: −log10 of the molar value.
Value Kind: pIC50

CN(C)C(=O)c1ccc(-c2ccc(Nc3cnc4c(c3)N(C(=O)C(C)(C)CO)CCO4)nc2)cc1    8.00 to 9.00
COc1cncc(Nc2ccc(-c3ccc(C(=O)N(C)C)cc3)cn2)c1    6.00 to 7.00
CN(C)C(=O)c1ccc(-c2cnc(Nc3cncc(N4CCN(Cc5ccccc5)C4=O)c3)cn2)cc1    8.00 to 9.00
CN(C)C(=O)c1ccc(-c2ccc(Nc3cncc(NC(=O)CCc4ccc(N)cc4)c3)nc2)cc1    7.00 to 8.00
CN(C)C(=O)c1ccc(-c2ccc(Nc3cncc(NC(=O)CCc4cccc(N)c4)c3)nc2)cc1    8.00 to 9.00
COc1cc(Nc2cnc3c(c2)N2C(=O)CC[C@H]2CO3)ncc1-c1ccc(N2CCCC2=O)cc1    ≥ 9.00
CN(C)C(=O)c1ccc(-c2ccc(Nc3cncc(NC(=O)c4cccc5[nH]ccc45)c3)nc2)cc1    8.00 to 9.00
COc1ncc(Nc2ccc(-c3ccc(N4CCCC4=O)cc3)cn2)cc1N(C)S(C)(=O)=O    6.00 to 7.00

====

- Target Under Test: PIP4K2A (Homo sapiens, UniProt P48426)
- Assay Method Text: Kinase Assay PIP4K2 A (Table 2)
- Assay type: biochemical
- Parameters: 4 nM PIP4K2A (full length protein, SignalChem); purchased SignalChem
- Experimental Parameters: compounds listed under IC50 bins
IC50 for assorted compounds
Value Kind: IC50

CN(C)C(=O)c1ccc(-c2ccc(Nc3cncc(CC(=O)NCc4cccnc4)c3)nc2)cc1 [Example 56]    100 to 1000 nM
CC(=O)Nc1ccc(-c2ccc(C(=O)N(C)C)cc2)cn1 [Example 220]    > 1000 nM
CN(C)S(=O)(=O)c1ccc(-c2ccc(Nc3cccnc3)nc2)cc1 [Example 63]    100 to 1000 nM
COc1cc(Nc2cnc3c(c2)N2C(=O)CC[C@H]2CO3)ncc1-c1ccc(N2CCCC2=O)c(F)c1 [Example 183]    ≤ 1 nM
COCc1nc(Nc2cnc3c(c2)N2C(=O)CC[C@H]2CO3)ncc1-c1ccc(N2CCCC2=O)cc1 [Example 197]    1 to 10 nM
O=C(c1cccc2ncc(Nc3ccc(-c4ccc(N5CCCC5=O)cc4)cn3)cc12)N1CCC(O)C1 (stereo not shown) [Example 149]    100 to 1000 nM
CN1CCN(c2cncc(Nc3ccc(-c4ccc(N5CCCC5=O)cc4)cn3)c2)S1(=O)=O [Example 174]    1 to 10 nM
COCc1cc(Nc2cnc3c(c2)N2C(=O)CC[C@H]2CO3)ncc1-c1ccc(-c2nocc2C)cc1 [Example 282]    1 to 10 nM
COC(=O)N1CCOc2ncc(Nc3ccc(-c4ccc(N5CCCC5=O)cc4)cn3)cc21 [Example 151]    1 to 10 nM
CN(C)C(=O)c1ccc(-c2ccc(Nc3cncc(N4CCN(Cc5ccc(N)cc5)C4=O)c3)nc2)cc1 [Example 222]    ≤ 1 nM
CC(C)(O)C(=O)N1CCOc2ncc(Nc3ccc(-c4ccc(N5CCCC5=O)cc4)cn3)cc21 [Example 238]    1 to 10 nM
CN(C)C/C=C/C(=O)N1CCC(C(=O)Nc2cccc(CCC(=O)Nc3cncc(Nc4ccc(-c5ccc(C(=O)N(C)C)cc5)cn4)c3)c2)CC1 [Example 110]    100 to 1000 nM
CC(=O)Nc1cncc(Nc2ccc(-c3ccc(C(=O)N(C)C)cc3)cn2)c1 [Example 31]    10 to 100 nM
CN(C)C(=O)c1ccc(-c2ccc(Nc3cncc(N(C4CC4)S(C)(=O)=O)c3)nc2)cc1 [Example 28]    10 to 100 nM
CC(C)Cn1cnnc1-c1ccc(-c2ccc(Nc3cnc4c(c3)N3C(=O)CC[C@H]3CO4)nc2)cc1 [Example 297]    10 to 100 nM
CN(C)C(=O)c1ccc(-c2ccc(Nc3cnc4c(c3)N3C(=O)CC[C@H]3CO4)nc2)cc1 [Example 242]    1 to 10 nM

FYI, the data here is from patent US11667651B2.
